# maps each entry to its inhibition
# Measured On: Serine/threonine-protein kinase Nek6 (Homo sapiens) (UniProt Q9HC98)
# Sequence (Q9HC98 whole entry): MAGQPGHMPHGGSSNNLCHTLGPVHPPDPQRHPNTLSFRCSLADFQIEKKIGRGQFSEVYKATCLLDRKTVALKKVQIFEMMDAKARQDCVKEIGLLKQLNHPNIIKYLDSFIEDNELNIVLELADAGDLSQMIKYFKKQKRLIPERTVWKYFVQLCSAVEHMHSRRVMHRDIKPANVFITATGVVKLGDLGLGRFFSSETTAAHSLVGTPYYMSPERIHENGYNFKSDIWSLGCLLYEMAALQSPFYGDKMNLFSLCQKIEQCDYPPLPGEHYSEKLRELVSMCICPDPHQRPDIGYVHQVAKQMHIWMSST
# Measurement Conditions: at 1 µM
Expressed in %, but write only the number.

Input line: Give its inhibition value. Item: `Cc1cccc2c1NC(=O)/C2=N\Nc1ccc(S(N)(=O)=O)cc1`
Output line: 1.65

Next:
Input line: Give its inhibition value. Item: `Fc1ccc(-c2nn3ccccc3c2-c2ccncc2)cc1`
Output line: 1.47

Input line: Give its inhibition value. Item: `CNC(=O)c1cccc(C#Cc2cncnc2Nc2ccc(OCc3cccc(F)c3)c(Cl)c2)c1`
Output line: 1.68

Input line: Give its inhibition value. Item: `c1ccc(-c2nc3n(c2-c2ccc4c(c2)OCO4)CCC3)nc1`
Output line: -0.68

Input line: Give its inhibition value. Item: `[O-][S+]1CCN(Cc2ccc(-c3ccc4ncnc(Nc5ccc(OCc6cccc(F)c6)c(Cl)c5)c4c3)o2)CC1`
Output line: 1.99

Input line: Give its inhibition value. Item: `CCn1c(-c2nonc2N)nc2c(C#CC(C)(C)O)nc(OC[C@H](N)c3ccccc3)cc21`
Output line: 1.56

Input line: Give its inhibition value. Item: `COC(=O)Nc1nc2ccc(Oc3ccc(NC(=O)Nc4cccc(Cl)c4)cc3)cc2[nH]1`
Output line: -0.77

* * *

# Measured On: Protein-tyrosine kinase 2-beta (Homo sapiens) (UniProt Q14289)
# Sequence (Q14289 whole entry, looked up): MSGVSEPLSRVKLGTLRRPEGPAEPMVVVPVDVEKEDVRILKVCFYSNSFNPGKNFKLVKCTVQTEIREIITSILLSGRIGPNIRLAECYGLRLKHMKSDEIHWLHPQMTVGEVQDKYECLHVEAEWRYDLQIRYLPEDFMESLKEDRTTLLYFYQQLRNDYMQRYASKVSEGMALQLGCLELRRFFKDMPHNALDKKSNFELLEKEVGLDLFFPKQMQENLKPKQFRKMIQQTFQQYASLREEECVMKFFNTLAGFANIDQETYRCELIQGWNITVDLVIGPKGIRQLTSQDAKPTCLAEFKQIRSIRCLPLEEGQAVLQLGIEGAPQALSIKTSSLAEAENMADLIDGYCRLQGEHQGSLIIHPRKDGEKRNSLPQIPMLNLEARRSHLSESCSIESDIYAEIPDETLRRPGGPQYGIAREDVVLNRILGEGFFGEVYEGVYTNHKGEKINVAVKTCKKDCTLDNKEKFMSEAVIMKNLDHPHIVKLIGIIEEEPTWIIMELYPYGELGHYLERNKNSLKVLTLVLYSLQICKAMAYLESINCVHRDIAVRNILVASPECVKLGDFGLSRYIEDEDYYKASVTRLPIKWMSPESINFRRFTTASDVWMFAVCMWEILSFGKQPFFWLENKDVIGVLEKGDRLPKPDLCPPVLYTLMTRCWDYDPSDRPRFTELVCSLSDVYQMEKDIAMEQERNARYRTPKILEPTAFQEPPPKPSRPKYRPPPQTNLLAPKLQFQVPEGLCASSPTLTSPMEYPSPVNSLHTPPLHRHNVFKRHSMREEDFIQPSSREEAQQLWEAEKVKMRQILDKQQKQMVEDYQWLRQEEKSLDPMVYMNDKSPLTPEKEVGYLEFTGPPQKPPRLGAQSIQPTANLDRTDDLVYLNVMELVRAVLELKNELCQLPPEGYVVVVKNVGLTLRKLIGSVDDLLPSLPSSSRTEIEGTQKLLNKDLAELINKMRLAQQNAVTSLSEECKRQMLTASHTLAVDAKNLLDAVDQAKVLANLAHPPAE
# Measurement Conditions: at 1 µM
# maps each entry to its inhibition
Expressed in %, but write only the number.

Input line: Give its inhibition value. Item: `CCCN(CCS(C)(=O)=O)Cc1ccc(-c2ccc3ncnc(Nc4ccc(OCc5cccc(F)c5)c(Cl)c4)c3c2)o1`
Output line: -1.09

Input line: Give its inhibition value. Item: `CCn1cc(-c2ccnc3[nH]ccc23)c(-c2cccc(NC(=O)Nc3ccc(OCc4ccccc4)cc3)c2)n1`
Output line: 3.88

Input line: Give its inhibition value. Item: `[O-][S+]1CCN(Cc2ccc(-c3ccc4ncnc(Nc5ccc(OCc6cccc(F)c6)c(Cl)c5)c4c3)o2)CC1`
Output line: 11.7

Input line: Give its inhibition value. Item: `c1cc(-c2cnn3nc(N4CCOCC4)ccc23)nc(NC2CC2)n1`
Output line: 15.4

Input line: Give its inhibition value. Item: `O=S(=O)(CCNCc1ccc(-c2ccc3ncnc(Nc4ccc(OCc5cccc(F)c5)c(Cl)c4)c3c2)o1)c1ccccc1`
Output line: 12.9

Input line: Give its inhibition value. Item: `COc1cc2ncn(-c3cc(OCc4ccccc4C(F)(F)F)c(C(=O)N(C)C)s3)c2cc1OC`
Output line: -5.44

Input line: Give its inhibition value. Item: `Nc1nc(-c2ccc(F)cc2)c(-c2ccc3ncccc3n2)s1`
Output line: 14.3

Input line: Give its inhibition value. Item: `COc1ccc(-c2oc3ncnc(N)c3c2-c2ccc(NC(=O)Nc3cc(C(F)(F)F)ccc3F)cc2)cc1`
Output line: 91

Input line: Give its inhibition value. Item: `CN1CCC(n2cnc(-c3ccc(F)cc3)c2-c2ccnc(N)n2)CC1`
Output line: 6.37

Input line: Give its inhibition value. Item: `CS(=O)(=O)CCNCc1ccc(-c2ccc3ncnc(Nc4ccc(OCc5ccccc5)c(C(F)(F)F)c4)c3c2)o1`
Output line: 7.02

// moving on: another record for inhibition
Input line: Give its inhibition value. Item: `COc1ccc(-c2cc3c(N)ncnc3o2)cc1`
Output line: 8.21

* * *

# Measured On: Ribosomal protein S6 kinase beta-1 (Homo sapiens) (UniProt P23443)
# Sequence (P23443 whole entry, looked up): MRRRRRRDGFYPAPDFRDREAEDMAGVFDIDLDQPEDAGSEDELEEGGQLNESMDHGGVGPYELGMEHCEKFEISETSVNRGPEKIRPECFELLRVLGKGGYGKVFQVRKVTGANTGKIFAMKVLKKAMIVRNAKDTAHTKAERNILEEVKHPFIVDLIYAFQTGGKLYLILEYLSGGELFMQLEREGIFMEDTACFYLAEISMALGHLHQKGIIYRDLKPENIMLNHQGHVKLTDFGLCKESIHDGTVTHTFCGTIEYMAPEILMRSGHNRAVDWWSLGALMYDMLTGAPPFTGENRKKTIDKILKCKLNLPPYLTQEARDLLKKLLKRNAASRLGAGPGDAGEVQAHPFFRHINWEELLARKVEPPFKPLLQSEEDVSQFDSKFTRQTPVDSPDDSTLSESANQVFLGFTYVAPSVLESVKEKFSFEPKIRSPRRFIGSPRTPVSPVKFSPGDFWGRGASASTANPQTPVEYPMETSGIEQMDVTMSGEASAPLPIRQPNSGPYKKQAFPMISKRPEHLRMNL
# Measurement Conditions: at 1 µM
# maps each entry to its inhibition
Include the unit right after the number.

Input line: Give its inhibition value. Item: `NC(=O)c1sc(-n2cnc3ccc(C(F)(F)F)cc32)cc1OCc1ccccc1Br`
Output line: 2.28%

Input line: Give its inhibition value. Item: `FC(F)(F)c1cccc(-c2nn3ncccc3c2-c2ccnc(Nc3ccc4c(c3)OCCO4)n2)c1`
Output line: -0.48%

Input line: Give its inhibition value. Item: `Nc1nc(-c2ccc(F)cc2)c(-c2ccc3ncccc3n2)s1`
Output line: 2.7%

Input line: Give its inhibition value. Item: `CCn1c(-c2nonc2N)nc2c(C#CC(C)(C)O)nc(OC[C@H](N)c3ccccc3)cc21`
Output line: 33.1%

* * *

# Measured On: Dual specificity tyrosine-phosphorylation-regulated kinase 1B (Homo sapiens)
# Measurement Conditions: at 0.1 µM
Result Type: inhibition (%)
Expressed in %, but write only the number.

Some compounds with recorded inhibition:
Input line: Give its inhibition value. Item: `c1cc(-c2cnn3nc(N4CCOCC4)ccc23)nc(NC2CC2)n1`
Output line: 6.08

Input line: Give its inhibition value. Item: `COC(=O)c1sc(-n2cnc3cc(OC)c(OC)cc32)cc1OCc1ccccc1C(F)(F)F`
Output line: -1.47

Input line: Give its inhibition value. Item: `CC(C)COC(=O)c1ccc2c(c1)/C(=C/Nc1ccc(S(N)(=O)=O)cc1)C(=O)N2`
Output line: 12

Input line: Give its inhibition value. Item: `COc1cc(/C=N/Nc2ncnc3[nH]ncc23)ccc1O`
Output line: 6.29

Input line: Give its inhibition value. Item: `Cc1cccc(Nc2ncc(-c3ccccc3)o2)c1`
Output line: 0.51

Input line: Give its inhibition value. Item: `COc1cccc(-c2c[nH]c3c(N/N=C/c4ccncc4)ncnc23)c1`
Output line: 11.3

Input line: Give its inhibition value. Item: `COc1ccc2c(-c3ccnc(Nc4cccc(OC(F)(F)F)c4)n3)cnn2n1`
Output line: 32.6

Input line: Give its inhibition value. Item: `CCn1c(-c2nonc2N)nc2c(C#CC(C)(C)O)nc(OC[C@H](N)c3ccccc3)cc21`
Output line: 0.98

Input line: Give its inhibition value. Item: `c1ccc(-c2nc3n(c2-c2ccc4c(c2)OCO4)CCC3)nc1`
Output line: 1.24

Input line: Give its inhibition value. Item: `CCNC(=O)O[C@H]1CN[C@H](C#Cc2cc3ncnc(Nc4ccc(OCc5cccc(F)c5)c(Cl)c4)c3s2)C1`
Output line: 0.74

Next:
Input line: Give its inhibition value. Item: `CNC(=O)c1cccc(C#Cc2cncnc2Nc2ccc(OCc3cccc(F)c3)c(Cl)c2)c1`
Output line: 0.13

Input line: Give its inhibition value. Item: `NC(=O)c1sc(-n2cnc3ccc(C(F)(F)F)cc32)cc1OCc1ccccc1Br`
Output line: -0.4

Input line: Give its inhibition value. Item: `COc1ccc(-c2nn3ncccc3c2-c2ccnc(Nc3ccc4c(c3)OCCO4)n2)cc1`
Output line: -0.35

Input line: Give its inhibition value. Item: `N#Cc1c(NC(=O)c2ccc(F)cc2)sc2c1CCCC2`
Output line: -0.66

Input line: Give its inhibition value. Item: `O=S(=O)(CCNCc1ccc(-c2ccc3ncnc(Nc4ccc(OCc5cccc(F)c5)c(Cl)c4)c3c2)o1)c1ccccc1`
Output line: -0.71

Input line: Give its inhibition value. Item: `CCCN(CCS(C)(=O)=O)Cc1ccc(-c2ccc3ncnc(Nc4ccc(OCc5cccc(F)c5)c(Cl)c4)c3c2)o1`
Output line: 4.87

Input line: Give its inhibition value. Item: `CCn1cc(-c2ccnc3[nH]ccc23)c(-c2cccc(NC(=O)Nc3ccc(OCc4ccccc4)cc3)c2)n1`
Output line: -1.6

Input line: Give its inhibition value. Item: `CN(C)CCOc1ccc(-c2nc(-c3ccncc3)c(-c3ccc4c(c3)CC/C4=N\O)[nH]2)cc1`
Output line: 2.86

Input line: Give its inhibition value. Item: `NS(=O)(=O)c1ccc(Nc2ncc(-c3ccccc3)o2)cc1`
Output line: 5.92

Input line: Give its inhibition value. Item: `Fc1ccc(-c2nn3ncccc3c2-c2ccnc(Nc3ccc4c(c3)OCCO4)n2)cc1`
Output line: 0.99

Input line: Give its inhibition value. Item: `Nc1nc(-c2cccc(Cl)c2)c(-c2ccc3ncccc3n2)s1`
Output line: -0.12

Input line: Give its inhibition value. Item: `FC(F)(F)c1cccc(-c2nn3ncccc3c2-c2ccnc(Nc3ccc4c(c3)OCCO4)n2)c1`
Output line: 0.78

Input line: Give its inhibition value. Item: `CS(=O)(=O)CCNCc1coc(-c2ccc3ncnc(Nc4ccc(OCc5ccccc5)cc4)c3c2)c1`
Output line: -0.25

Input line: Give its inhibition value. Item: `N#Cc1c(NC(=O)CN2CCOCC2)sc2c1CCCC2`
Output line: 4.95

Input line: Give its inhibition value. Item: `CCN1CCC(CC(=O)Nc2n[nH]c3nnc(-c4cccc(F)c4F)cc23)CC1`
Output line: 7.85

Input line: Give its inhibition value. Item: `COc1cccc(-n2ncc3c(N/N=C/c4ccc(F)cc4)ncnc32)c1`
Output line: 4.09

Input line: Give its inhibition value. Item: `CNC(=O)c1cncc(/C=C/c2ccccc2Cl)c1`
Output line: -0.37

Input line: Give its inhibition value. Item: `CS(=O)(=O)CCNCc1ccc(-c2ccc3ncnc(Nc4ccc(OCc5ccccc5)c(C(F)(F)F)c4)c3c2)o1`
Output line: -2.07

Input line: Give its inhibition value. Item: `CC(=O)Nc1cccc(C#Cc2cncnc2Nc2ccc(OCc3cccc(F)c3)c(Cl)c2)c1`
Output line: 0.85

* * *

# Measured On: Vascular endothelial growth factor receptor 1 (Homo sapiens) (UniProt P17948)
# Sequence (P17948 whole entry): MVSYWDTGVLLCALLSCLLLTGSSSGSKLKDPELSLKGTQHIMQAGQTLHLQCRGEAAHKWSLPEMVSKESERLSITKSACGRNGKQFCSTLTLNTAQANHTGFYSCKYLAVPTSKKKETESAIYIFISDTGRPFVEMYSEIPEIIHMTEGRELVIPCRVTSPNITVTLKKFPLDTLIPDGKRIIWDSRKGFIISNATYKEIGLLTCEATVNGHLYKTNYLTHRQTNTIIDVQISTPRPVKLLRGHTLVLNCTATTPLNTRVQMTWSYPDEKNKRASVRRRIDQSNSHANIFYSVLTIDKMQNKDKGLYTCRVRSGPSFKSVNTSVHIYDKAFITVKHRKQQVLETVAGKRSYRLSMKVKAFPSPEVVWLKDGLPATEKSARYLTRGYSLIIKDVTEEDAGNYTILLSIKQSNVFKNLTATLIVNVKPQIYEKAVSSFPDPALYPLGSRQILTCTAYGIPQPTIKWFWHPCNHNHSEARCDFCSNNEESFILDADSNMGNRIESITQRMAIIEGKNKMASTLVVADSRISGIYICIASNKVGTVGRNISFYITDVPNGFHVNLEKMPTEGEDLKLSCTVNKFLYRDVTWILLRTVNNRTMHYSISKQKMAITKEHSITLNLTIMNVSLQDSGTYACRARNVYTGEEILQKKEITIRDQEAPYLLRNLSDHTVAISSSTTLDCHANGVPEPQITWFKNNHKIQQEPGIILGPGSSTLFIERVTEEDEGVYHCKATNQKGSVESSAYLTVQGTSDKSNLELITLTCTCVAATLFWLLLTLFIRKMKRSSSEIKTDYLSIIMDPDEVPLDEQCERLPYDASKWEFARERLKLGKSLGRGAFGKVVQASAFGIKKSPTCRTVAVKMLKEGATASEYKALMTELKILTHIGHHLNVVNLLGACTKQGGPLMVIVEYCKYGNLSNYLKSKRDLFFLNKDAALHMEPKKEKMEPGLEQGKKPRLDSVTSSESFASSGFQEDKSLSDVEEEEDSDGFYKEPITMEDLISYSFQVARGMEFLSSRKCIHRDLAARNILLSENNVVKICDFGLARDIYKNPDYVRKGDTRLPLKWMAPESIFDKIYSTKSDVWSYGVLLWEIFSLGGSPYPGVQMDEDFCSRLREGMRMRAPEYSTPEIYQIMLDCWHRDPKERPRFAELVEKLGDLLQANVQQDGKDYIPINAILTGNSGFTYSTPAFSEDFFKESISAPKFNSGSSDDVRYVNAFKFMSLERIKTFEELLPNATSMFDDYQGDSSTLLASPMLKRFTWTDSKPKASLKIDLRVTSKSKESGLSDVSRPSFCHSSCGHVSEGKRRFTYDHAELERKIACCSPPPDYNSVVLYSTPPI
# Measurement Conditions: at 1 µM
# Description: GSK_PKIS: FLT1 mean inhibition at 1 uM [Nanosyn]
inhibition below 4% gives F; inhibition at or above it gives T.

Input line: Would you say `COc1cccc(-c2c[nH]c3c(N/N=C/c4ccncc4)ncnc23)c1` shows inhibition at minimum 4%?
Output line: T

Input line: Would you say `CCn1c(-c2nonc2N)nc2cnc(Oc3cccc(NC(=O)c4ccc(N(C)C)cc4)c3)cc21` shows inhibition at minimum 4%?
Output line: T

Input line: Would you say `NS(=O)(=O)c1ccc(Nc2ncc(-c3ccccc3)o2)cc1` shows inhibition at minimum 4%?
Output line: T

Input line: Would you say `Fc1ccc(-c2nn3ccccc3c2-c2ccncc2)cc1` shows inhibition at minimum 4%?
Output line: F

Input line: Would you say `Cc1ccc(O)cc1Nc1ccnc2cc(-c3ccccn3)ccc12` shows inhibition at minimum 4%?
Output line: T

Input line: Would you say `COC(=O)Nc1nc2ccc(Oc3ccc(NC(=O)Nc4cccc(Cl)c4)cc3)cc2[nH]1` shows inhibition at minimum 4%?
Output line: T

Next:
Input line: Would you say `CC(=O)Nc1cccc(C#Cc2cncnc2Nc2ccc(OCc3cccc(F)c3)c(Cl)c2)c1` shows inhibition at minimum 4%?
Output line: F

Input line: Would you say `Fc1ccc(-c2cc(-c3c[nH]nc3-c3ccccn3)ccn2)cc1` shows inhibition at minimum 4%?
Output line: F

Input line: Would you say `Fc1cccc(COc2ccc(Nc3ncnc4sc(-c5ccco5)cc34)cc2Cl)c1` shows inhibition at minimum 4%?
Output line: F

Input line: Would you say `N#Cc1c(NC(=O)CN2CCOCC2)sc2c1CCCC2` shows inhibition at minimum 4%?
Output line: T
